tested on: HCT-116, HepG-2 and MCF-7 cells; assay type: cell-based; details: Homo sapiens, read-out: IC50 values against the three cell lines (range)
// reported IC50 per item

chemical smiles | IC50
COc1cc(-c2ccc(-c3nnc(SCC4CCCCC4)o3)c(C)n2)cc(OC)c1OC | 10.8 to 31.5 µM
COc1cc(OC)c(/C=N/NC(=O)c2ccc(-c3cc(OC)c(OC)c(OC)c3)nc2C)c(OC)c1 | 10.8 to 31.5 µM
COc1ccc(/C=N/NC(=O)c2ccc(-c3cc(OC)c(OC)c(OC)c3)nc2C)cc1OC | 3.25 to 9.15 µM
COc1cc(-c2ccc(C(=O)N/N=C/c3cc(C)ccc3C)c(C)n2)cc(OC)c1OC | 3.25 to 9.15 µM
COc1cc(-c2ccc(-c3nnc(SCCCBr)o3)c(C)n2)cc(OC)c1OC | 10.8 to 31.5 µM

The reported value for COc1cc(-c2ccc(C(=O)N/N=C/c3ccncc3)c(C)n2)cc(OC)c1OC in terms of IC50 is 10.8 to 31.5 µM

The reported value for CCCCCCSc1nnc(-c2ccc(-c3cc(OC)c(OC)c(OC)c3)nc2C)o1 in terms of IC50 is 10.8 to 31.5 µM

The reported value for COc1cc(-c2ccc(C(=O)N/N=C/c3cc(Cl)ccc3Cl)c(C)n2)cc(OC)c1OC in terms of IC50 is 10.8 to 31.5 µM

The reported value for COc1ccccc1/C=N/NC(=O)c1ccc(-c2cc(OC)c(OC)c(OC)c2)nc1C in terms of IC50 is 3.25 to 9.15 µM

The reported value for COc1cc(-c2ccc(C(=O)N/N=C/c3ccc(O)cc3)c(C)n2)cc(OC)c1OC in terms of IC50 is 10.8 to 31.5 µM

The reported value for COc1cc(-c2ccc(C(=O)N/N=C/c3ccc(Cl)cc3)c(C)n2)cc(OC)c1OC in terms of IC50 is 10.8 to 31.5 µM

The reported value for COc1cc(-c2ccc(C(=O)N/N=C/c3ccc([N+](=O)[O-])cc3)c(C)n2)cc(OC)c1OC in terms of IC50 is 3.25 to 9.15 µM

The reported value for COc1cc(-c2ccc(-c3nnc(SC)o3)c(C)n2)cc(OC)c1OC in terms of IC50 is 10.8 to 31.5 µM
